These measurements were taken from ChEMBL document CHEMBL1125901.

Test system: Shigella flexneri
Assay: The relative ability of compound to promote the growth of Shigella flexneri SA 240, a strain lacking the ability to synthesize siderophores was measured as zone stimulation at concentration of 5 mM
Assay type: functional
So I've got a bunch of compounds here, and I need their Zone of stimulation values.
Give bare numbers, in mm.

Below, 3 compounds whose answers are already recorded.
[[record]]
structure_smiles = "CC(=O)N(O)CCC[C@H](NC(=O)[C@H](CCCN(O)C(C)=O)NC(=O)[C@@H](N)CCCN(O)C(C)=O)C(=O)N[C@@H](C(=O)O)c1ccc(O)cc1"
recorded_measurement = 45

[[record]]
structure_smiles = "CC(=O)N(O)CCC[C@H](NC(=O)[C@H](CCCN(O)C(C)=O)NC(=O)[C@@H](N)CCCN(O)C(C)=O)C(=O)O"
recorded_measurement = 40

[[record]]
structure_smiles = "CC(=O)N(O)CCC[C@H](NC(=O)[C@H](CCCN(O)C(C)=O)NC(=O)[C@@H](N)CCCN(O)C(C)=O)C(=O)N[C@@H](C(=O)O)c1ccccc1"
recorded_measurement = 45


Next:
Give the measured Zone of stimulation of `CC(=O)N(O)CCC[C@H](NC(=O)[C@H](CCCN(O)C(C)=O)NC(=O)[C@@H](N)CCCN(O)C(C)=O)C(=O)N[C@H](CO)C(=O)O` .
18
